Cited source for all entries: the supplement of paper PMC10567573

B1: SPDEF (parent)
chain: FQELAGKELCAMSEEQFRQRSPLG

# Variants of: B1
# protocol_text: protein stability index of a GFP-peptide fusion (GPS, HEK-293T) (PSI 1-6); higher = more stable;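 further: lentivirally expressed fusions sorted by FACS into six bins by GFP to DsRed ratio, PSI derived from sequencing read proportions per bin multiplied by bin number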
# condition_label: c terminus: a fixed tail appended
Rule: protein stability index under 3 gives not satisfied, otherwise satisfied.

mutation_label	class_assignment
L9K	satisfied
L9R	satisfied
R20H	not satisfied
S13M	not satisfied
Q19V	not satisfied

Problem: Check if protein stability index >= 3 (inclusive). Item: F17H
Result: satisfied

Problem: Dear colleague, could you confirm whether F17T has protein stability index at or above 3?
Result: satisfied

Problem: Textbook exercise: given the entry A5F , state whether its protein stability index is greater than or equal to 3.
Result: not satisfied

Problem: Has E8V a recorded protein stability index greater than or equal to 3?
Result: not satisfied

Problem: Evaluate A5P : protein stability index at minimum 3?
Result: satisfied

Problem: State whether the measured protein stability index reaches 3, counting equality as reaching it, for P22K
Result: not satisfied

Problem: Form field: protein stability index at least 3? Entry: A5H
Result: not satisfied

Problem: Check this variant for protein stability index at or above 3: G6L
Result: not satisfied

Problem: Please check the record E8N and state if its protein stability index is at or above 3.
Result: not satisfied

Problem: In plain terms: is recorded protein stability index at least 3 for G6C ?
Result: not satisfied

Problem: Please indicate if the recorded protein stability index for Q16C meets or exceeds 3.
Result: not satisfied

Problem: Check if protein stability index >= 3 (inclusive). Item: F17V
Result: satisfied

Problem: Decide: is the reported value of protein stability index for A5V equal to or greater than 3?
Result: satisfied

Problem: Determine whether measured protein stability index meets or exceeds 3 for R20C
Result: not satisfied
